Molecular target: PA63 (cleaved protective antigen) (Bacillus anthracis)
Assay: filter binding
Details: N15 and N23 = AEGIS dP
pKd: −log10 of the molar value.
propertyMeasured: pKd

1) CGTGTAAACCATGGNGTGAGTGNGTAGGTGTCCTGAGGAGGT [PA1T4A6A7] :: 5.64
